Test: Selectivity ratio of IC50 for PDE6 to IC50 for PDE5
Label 1 when Ratio IC50 is at or above 200; otherwise label -1.

Worked examples, 3 compounds total:
| compound | label_value |
| --- | --- |
| CCCOCCn1c(=O)nc(N2CCN(CCO)CC2)c2cnc(-c3ccc(OC)nc3)cc21 | -1 |
| CCCOCCn1c(=O)nc(NC2CCC(O)CC2)c2nnc(-c3ccc(OC)nc3)cc21 (configuration not stated) | -1 |
| CCCOCCn1c(=O)nc(NCCO)c2nnc(-c3ccc(OC)nc3)cc21 | 1 |

Ask | Reported Ratio IC50 reaches at least 200 for CCCOCCn1c(=O)nc(N2CCN(CC(=O)O)CC2)c2nnc(-c3ccc(OC)nc3)cc21 ?
Reply | -1

Ask | Is the recorded value of Ratio IC50 equal to or greater than 200 for this compound? CCCOCCn1c(=O)nc(NC(C)(C)C(=O)O)c2nnc(-c3ccc(OC)nc3)cc21
Reply | -1

Ask | Please indicate if the recorded Ratio IC50 for CCCOCCn1c(=O)nc(N[C@H](C)C(=O)O)c2nnc(-c3ccc(OC)nc3)cc21 meets or exceeds 200.
Reply | -1

Ask | Please indicate if the recorded Ratio IC50 for CCCOCCn1c(=O)c(N2CCN(CCO)CC2)nc2ncc(-c3ccc(OC)nc3)cc21 meets or exceeds 200.
Reply | 1

====

Molecular target: CYP3A4 (Homo sapiens)
Sequence (P08684 whole entry): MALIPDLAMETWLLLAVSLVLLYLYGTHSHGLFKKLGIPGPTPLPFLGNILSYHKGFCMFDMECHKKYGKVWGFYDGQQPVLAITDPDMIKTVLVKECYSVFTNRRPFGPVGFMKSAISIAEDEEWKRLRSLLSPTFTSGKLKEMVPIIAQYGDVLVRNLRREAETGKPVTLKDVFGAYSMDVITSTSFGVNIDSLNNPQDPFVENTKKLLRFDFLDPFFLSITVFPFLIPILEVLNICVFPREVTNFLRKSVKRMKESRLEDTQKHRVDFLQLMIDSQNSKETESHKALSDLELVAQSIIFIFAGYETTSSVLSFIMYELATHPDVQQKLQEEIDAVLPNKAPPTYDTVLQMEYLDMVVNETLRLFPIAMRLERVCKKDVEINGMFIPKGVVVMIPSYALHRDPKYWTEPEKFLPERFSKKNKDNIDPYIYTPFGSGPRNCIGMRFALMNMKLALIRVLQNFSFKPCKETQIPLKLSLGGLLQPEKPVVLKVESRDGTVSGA
Assay: Inhibition of CYP3A4 at 3 uM
Format: ADME
property: inhibition at 3 µM (%)
Reply with just the number (in %).

Notebook: CCCOCCn1c(=O)nc(NC2CCC(O)CC2)c2nnc(-c3ccc(OC)nc3)cc21 (stereo unspecified) , inhibition at 3 µM read as 23

====

Target: 3',5'-cyclic-AMP phosphodiesterase 4C (Homo sapiens)
Sequence (Q08493 whole entry): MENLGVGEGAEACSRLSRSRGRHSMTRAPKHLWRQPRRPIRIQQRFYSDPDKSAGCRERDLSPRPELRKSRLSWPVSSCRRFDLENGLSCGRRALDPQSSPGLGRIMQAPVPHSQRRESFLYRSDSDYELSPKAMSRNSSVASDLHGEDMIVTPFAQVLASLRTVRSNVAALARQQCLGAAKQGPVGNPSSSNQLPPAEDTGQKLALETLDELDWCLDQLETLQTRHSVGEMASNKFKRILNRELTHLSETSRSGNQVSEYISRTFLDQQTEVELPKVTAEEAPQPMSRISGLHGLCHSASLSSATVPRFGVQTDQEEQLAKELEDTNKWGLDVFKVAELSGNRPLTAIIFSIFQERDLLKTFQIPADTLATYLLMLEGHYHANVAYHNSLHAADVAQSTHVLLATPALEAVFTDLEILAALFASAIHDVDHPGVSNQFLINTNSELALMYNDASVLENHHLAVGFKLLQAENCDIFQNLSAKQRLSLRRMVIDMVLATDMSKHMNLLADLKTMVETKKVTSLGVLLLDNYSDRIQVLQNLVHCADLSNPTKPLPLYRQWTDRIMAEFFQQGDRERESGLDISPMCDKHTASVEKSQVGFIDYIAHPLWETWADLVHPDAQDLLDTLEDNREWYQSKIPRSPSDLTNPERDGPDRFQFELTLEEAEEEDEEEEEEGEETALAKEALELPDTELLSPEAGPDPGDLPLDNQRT
property: IC50

The reported IC50 value, 3',5'-cyclic-AMP phosphodiesterase 4C (Homo sapiens), for CCCOCCn1c(=O)nc(NC2CCC(O)CC2)c2nnc(-c3ccc(OC)nc3)cc21 (stereo unspecified) reads > 2000 nM

====

Assay: Selectivity ratio of IC50 for PDE11 to IC50 for PDE5
property: Ratio IC50
Give a plain numeric answer without units written out.

| compound | Ratio IC50 |
| --- | --- |
| CCCOCCn1c(=O)nc(N2CCCC(C(=O)O)C2)c2nnc(-c3ccc(OC)nc3)cc21 (centres undefined) | 297 |
| CCOCCn1c(=O)nc(N2CCN(CCO)CC2)c2nnc(-c3ccc(OC)nc3)cc21 | 286 |
| CCCOCCn1c(=O)nc(NCCN2CCOCC2)c2cnc(-c3ccc(OC)nc3)cc21 | 9050 |
| CCCOCCn1c(=O)c(NC2CCC(O)CC2)nc2cnc(-c3ccc(OC)nc3)cc21 (centres undefined) | 1320 |
| CCCOCCn1c(=O)nc(NCCO)c2nnc(-c3ccc(OC)nc3)cc21 | 240 |
| CCCOCCn1c(=O)nc(N2CCN(CCO)CC2)c2nnc(-c3ccc(OC)nc3)cc21 | 834 |
| CCCOCCn1c(=O)nc(N2CCC(CC(=O)O)CC2)c2nnc(-c3ccc(OC)nc3)cc21 | 1060 |
| CCCOCCn1c(=O)nc(NCCN2CCOCC2)c2nnc(-c3ccc(OC)nc3)cc21 | 6820 |
| COc1ccc(-c2cc3c(nn2)c(NCC(=O)N(C)C)nc(=O)n3CCOCC(F)(F)F)cn1 | 4170 |
| CCCOCCn1c(=O)nc(N2CCN(CC(=O)O)CC2)c2nnc(-c3ccc(OC)nc3)cc21 | 1330 |

In plain terms, CCCOCCn1c(=O)nc(NC2CCNCC2)c2nnc(-c3ccc(OC)nc3)cc21 has a documented Ratio IC50 of 1530

Note to self: Ratio IC50 recorded for CCCOCCn1c(=O)nc(N2CCC(O)CC2)c2nnc(-c3ccc(OC)nc3)cc21 was 240

Consider CCOCCn1c(=O)nc(NCC(=O)N(C)C)c2nnc(-c3ccc(OC)nc3)cc21 . Its measured Ratio IC50 is 199

The measured Ratio IC50 associated with CCCOCCn1c(=O)nc(NC2CCC(C(=O)O)CC2)c2nnc(-c3ccc(OC)nc3)cc21 (centres undefined) reads 541

Reported Ratio IC50 for CCCOCCn1c(=O)nc(NCC(=O)N(C)C)c2nnc(-c3ccc(OC)nc3)cc21 was 277

====

Experiment: Inhibition of PDE9
property: IC50

The measured IC50 associated with CCCOCCn1c(=O)nc(NC2CCC(O)CC2)c2nnc(-c3ccc(OC)nc3)cc21 (stereo unspecified) reads > 2000 nM

====

Measured bioavailability values are reported for all entries that follow.
Test: Oral bioavailability in rat at 2 mg/kg
Type: ADME, organism-based
Settings: in vivo

| molecule | bioavailability |
| --- | --- |
| CCCOCCn1c(=O)c(NC2CCC(O)CC2)nc2cnc(-c3ccc(OC)nc3)cc21 (configuration not stated) | 50% |

Continue with the molecule presented below.
Reported bioavailability ( CCCOCCn1c(=O)nc(NC2CCC(O)CC2)c2nnc(-c3ccc(OC)nc3)cc21 (configuration not stated) ) = 85%

====

Test: Volume of distribution in dog
Type: ADME, organism-based, Canis lupus familiaris
Conditions: in vivo
Quick reference for Vd among some compounds
All answers are understood in L/kg, so give the number only.

| compound | property | reported_result |
| --- | --- | --- |
| CCCOCCn1c(=O)nc(NC2CCC(O)CC2)c2nnc(-c3ccc(OC)nc3)cc21 (configuration not stated) | Vd | 0.3 |

API: the following record is the query input.
Entry under test: CCCOCCn1c(=O)c(NC2CCC(O)CC2)nc2cnc(-c3ccc(OC)nc3)cc21 (configuration not stated) . Its Vd was 3.5

====

Molecular target: High affinity cAMP-specific and IBMX-insensitive 3',5'-cyclic phosphodiesterase 8B (Homo sapiens, UniProt O95263)
Sequence (O95263 whole entry): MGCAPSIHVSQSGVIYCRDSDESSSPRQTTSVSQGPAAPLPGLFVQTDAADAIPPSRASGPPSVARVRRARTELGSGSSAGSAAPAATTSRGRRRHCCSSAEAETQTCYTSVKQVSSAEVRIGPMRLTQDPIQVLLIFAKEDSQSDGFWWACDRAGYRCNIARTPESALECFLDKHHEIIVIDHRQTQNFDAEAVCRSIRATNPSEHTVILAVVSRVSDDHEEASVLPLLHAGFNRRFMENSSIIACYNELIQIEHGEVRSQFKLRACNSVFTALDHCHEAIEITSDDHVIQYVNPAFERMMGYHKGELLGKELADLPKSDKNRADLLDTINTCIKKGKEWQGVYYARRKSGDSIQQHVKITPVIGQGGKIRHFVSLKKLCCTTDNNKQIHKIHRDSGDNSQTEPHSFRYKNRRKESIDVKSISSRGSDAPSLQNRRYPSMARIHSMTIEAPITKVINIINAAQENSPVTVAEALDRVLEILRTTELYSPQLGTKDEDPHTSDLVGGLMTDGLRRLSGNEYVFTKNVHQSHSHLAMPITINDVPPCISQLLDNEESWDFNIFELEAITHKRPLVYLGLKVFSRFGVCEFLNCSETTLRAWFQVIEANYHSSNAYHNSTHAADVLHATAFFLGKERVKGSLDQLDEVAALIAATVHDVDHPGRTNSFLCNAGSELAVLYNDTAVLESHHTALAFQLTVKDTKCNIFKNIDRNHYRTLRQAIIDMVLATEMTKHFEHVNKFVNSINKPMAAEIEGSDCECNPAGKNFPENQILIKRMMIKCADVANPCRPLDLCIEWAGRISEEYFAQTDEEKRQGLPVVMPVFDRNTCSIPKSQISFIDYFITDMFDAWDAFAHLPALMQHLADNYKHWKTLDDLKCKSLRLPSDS
Assay: Inhibition of PDE8B
property: IC50

# IC50 of CCCOCCn1c(=O)nc(NC2CCC(O)CC2)c2nnc(-c3ccc(OC)nc3)cc21 (stereo unspecified) = > 2 µM

====

Target chain: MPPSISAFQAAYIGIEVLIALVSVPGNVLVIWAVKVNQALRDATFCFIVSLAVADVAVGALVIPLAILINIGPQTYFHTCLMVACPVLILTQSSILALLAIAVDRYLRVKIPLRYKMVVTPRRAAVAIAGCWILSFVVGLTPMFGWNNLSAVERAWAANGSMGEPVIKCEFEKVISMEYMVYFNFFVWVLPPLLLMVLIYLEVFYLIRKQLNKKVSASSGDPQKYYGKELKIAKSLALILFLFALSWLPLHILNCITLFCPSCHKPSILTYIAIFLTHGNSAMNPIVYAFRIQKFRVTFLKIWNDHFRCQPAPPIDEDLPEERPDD
property: pIC50
pIC50 here: minus log base 10 of the concentration, concentration in moles per litre.

Documented pIC50 of CCCOCCn1c(=O)nc(NC2CCC(O)CC2)c2nnc(-c3ccc(OC)nc3)cc21 (stereo unspecified) : 6.36

====

Assay: Selectivity ratio of IC50 for PDE11 to IC50 for PDE5
Quick rule for you: Ratio IC50 under 2000 gets criterion met, anything else gets criterion not met.

Some entries whose results are on file:
| molecule | label_value |
| --- | --- |
| CCCOCCn1c(=O)nc(NC2CCC(O)CC2)c2ncc(-c3ccc(OC)nc3)cc21 (centres undefined) | criterion not met |
| CCCOCCn1c(=O)c(NC2CCC(O)CC2)nc2ncc(-c3ccc(OC)nc3)cc21 (centres undefined) | criterion met |
| CCCOCCn1c(=O)nc(NC2CCC(O)CC2)c2cnc(-c3ccc(OC)nc3)cc21 (centres undefined) | criterion not met |
| CCCOCCn1c(=O)nc(NCCC(=O)O)c2nnc(-c3ccc(OC)nc3)cc21 | criterion met |
| CCCOCCn1c(=O)c(N2CCN(CCO)CC2)nc2cnc(-c3ccc(OC)nc3)cc21 | criterion not met |

Ask | Answer whether the molecule CCCOCCn1c(=O)nc(N2CCC(C(=O)O)CC2)c2nnc(-c3ccc(OC)nc3)cc21 has Ratio IC50 strictly less than 2000
Reply | criterion met

Ask | Does this molecule meet the criterion Ratio IC50 < 2000? CCCOCCn1c(=O)nc(NC2CCC(O)CC2)c2nnc(-c3ccc(OC)nc3)cc21 (centres undefined)
Reply | criterion met

====

Dear all, this message contains pIC50 results, target or system cGMP-specific 3',5'-cyclic phosphodiesterase (Homo sapiens).
Lab note — pIC50 values are minus log10 of concentrations in M.

Please review the following examples before continuing.
| molecule | property | reported_result |
| --- | --- | --- |
| CCCOCCn1c(=O)nc(NCCO)c2nnc(-c3ccc(OC)nc3)cc21 | pIC50 | 9.66 |
| CCCOCCn1c(=O)nc(N[C@@H]2CCCC[C@@H]2C(=O)O)c2nnc(-c3ccc(OC)nc3)cc21 (racemic) | pIC50 | 10.70 |
| CCOCCn1c(=O)nc(NCC(=O)N(C)C)c2nnc(-c3ccc(OC)nc3)cc21 | pIC50 | 8.83 |

Notebook: CCCOCCn1c(=O)nc(NCCN2CCOCC2)c2cnc(-c3ccc(OC)nc3)cc21 , pIC50 read as 10.10
